molecular target: Kit (Homo sapiens, UniProt P10721)
measure: IC50

| smiles-string | system-name | measure | measured |
| --- | --- | --- | --- |
| N#Cc1ccnc2[nH]cc(C(=O)c3c(F)ccc(NS(=O)(=O)c4ccc(C(F)(F)F)cc4)c3F)c12 | Kit (Homo sapiens, UniProt P10721) | IC50 | 1 to 10 µM |

----------
target: UniProt:P12931
Sequence (P12931 whole entry, species assumed): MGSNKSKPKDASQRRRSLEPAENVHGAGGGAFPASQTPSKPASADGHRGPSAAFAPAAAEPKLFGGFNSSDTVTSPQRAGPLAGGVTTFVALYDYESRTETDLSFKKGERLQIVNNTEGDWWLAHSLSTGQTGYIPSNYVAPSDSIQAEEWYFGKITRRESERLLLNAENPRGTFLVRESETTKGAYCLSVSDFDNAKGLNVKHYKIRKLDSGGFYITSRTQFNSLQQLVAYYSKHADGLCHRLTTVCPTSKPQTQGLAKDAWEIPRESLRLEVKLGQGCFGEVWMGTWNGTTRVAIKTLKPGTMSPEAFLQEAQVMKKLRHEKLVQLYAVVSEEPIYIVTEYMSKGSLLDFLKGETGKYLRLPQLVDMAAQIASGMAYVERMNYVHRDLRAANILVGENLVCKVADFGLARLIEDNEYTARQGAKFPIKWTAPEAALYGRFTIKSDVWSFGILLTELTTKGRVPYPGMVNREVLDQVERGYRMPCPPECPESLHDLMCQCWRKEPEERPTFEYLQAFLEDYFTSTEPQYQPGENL

| smiles-string | IC50 |
| --- | --- |
| N#Cc1ccnc2[nH]cc(C(=O)c3c(F)ccc(NS(=O)(=O)c4ccc(C(F)(F)F)cc4)c3F)c12 | 1 to 10 µM |

----------
target: B-Raf (Homo sapiens); construct: purchased Upstate Biotechnology; experiment: Raf kinase biochemical assay (biotin-MEK1 phosphorylation, AlphaScreen), B-Raf; conditions: 100 μM ATP, biotin-MEK1 substrate
Sequence (P15056 whole entry): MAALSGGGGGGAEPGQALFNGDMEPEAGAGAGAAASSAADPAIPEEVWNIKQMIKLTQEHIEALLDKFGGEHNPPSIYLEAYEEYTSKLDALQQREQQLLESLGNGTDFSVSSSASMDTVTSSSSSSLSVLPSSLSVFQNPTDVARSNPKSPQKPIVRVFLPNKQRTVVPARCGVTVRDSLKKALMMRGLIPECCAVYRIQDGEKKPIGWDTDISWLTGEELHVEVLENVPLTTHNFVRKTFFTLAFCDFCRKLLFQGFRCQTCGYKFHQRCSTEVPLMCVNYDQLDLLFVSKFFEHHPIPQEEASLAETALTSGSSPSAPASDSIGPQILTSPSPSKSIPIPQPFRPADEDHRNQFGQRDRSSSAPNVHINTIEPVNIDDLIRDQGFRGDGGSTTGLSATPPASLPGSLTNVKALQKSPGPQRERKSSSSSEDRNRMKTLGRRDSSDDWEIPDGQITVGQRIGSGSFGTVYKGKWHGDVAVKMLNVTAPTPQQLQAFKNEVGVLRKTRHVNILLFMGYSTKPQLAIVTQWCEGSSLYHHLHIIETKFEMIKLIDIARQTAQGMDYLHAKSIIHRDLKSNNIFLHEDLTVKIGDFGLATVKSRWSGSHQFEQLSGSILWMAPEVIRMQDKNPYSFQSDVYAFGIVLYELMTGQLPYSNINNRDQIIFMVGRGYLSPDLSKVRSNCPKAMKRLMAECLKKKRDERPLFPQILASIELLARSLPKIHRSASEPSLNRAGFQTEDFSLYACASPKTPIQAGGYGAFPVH
pIC50: −log10 of the molar value.

| compound | system-name | pIC50 |
| --- | --- | --- |
| N#Cc1ccnc2[nH]cc(C(=O)c3c(F)ccc(NS(=O)(=O)c4ccc(C(F)(F)F)cc4)c3F)c12 [Compound P-0001] | B-Raf (Homo sapiens) | > 7.00 |
| C#Cc1ccnc2[nH]cc(C(=O)c3c(F)ccc(NS(=O)(=O)c4ccc(C(F)(F)F)cc4)c3F)c12 [Compound P-0002] | B-Raf (Homo sapiens) | > 7.00 |

----------
biological target: CYP2C9 (Homo sapiens)
Sequence (P11712 whole entry): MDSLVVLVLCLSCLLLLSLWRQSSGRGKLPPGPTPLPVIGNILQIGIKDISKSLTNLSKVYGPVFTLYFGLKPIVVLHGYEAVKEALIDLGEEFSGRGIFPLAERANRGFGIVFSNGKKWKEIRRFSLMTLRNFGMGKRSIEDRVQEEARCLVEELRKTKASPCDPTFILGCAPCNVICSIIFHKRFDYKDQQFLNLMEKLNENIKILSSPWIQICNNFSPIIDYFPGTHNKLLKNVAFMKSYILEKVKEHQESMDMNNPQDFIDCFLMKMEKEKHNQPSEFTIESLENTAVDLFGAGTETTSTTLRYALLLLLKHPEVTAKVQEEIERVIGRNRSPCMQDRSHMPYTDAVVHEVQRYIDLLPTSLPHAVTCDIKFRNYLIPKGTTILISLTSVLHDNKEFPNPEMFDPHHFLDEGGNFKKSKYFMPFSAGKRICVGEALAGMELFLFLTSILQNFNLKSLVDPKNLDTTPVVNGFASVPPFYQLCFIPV

| smiles-string | IC50 |
| --- | --- |
| N#Cc1ccnc2[nH]cc(C(=O)c3c(F)ccc(NS(=O)(=O)c4ccc(C(F)(F)F)cc4)c3F)c12 | > 10 µM |

----------
molecular target: B-Raf mutant V600E (Homo sapiens, UniProt P15056, V600E); experiment: Raf kinase biochemical assay (biotin-MEK1 phosphorylation, AlphaScreen), B-Raf V600E; details: 100 μM ATP, biotin-MEK1 substrate
Sequence (P15056 whole entry V600E): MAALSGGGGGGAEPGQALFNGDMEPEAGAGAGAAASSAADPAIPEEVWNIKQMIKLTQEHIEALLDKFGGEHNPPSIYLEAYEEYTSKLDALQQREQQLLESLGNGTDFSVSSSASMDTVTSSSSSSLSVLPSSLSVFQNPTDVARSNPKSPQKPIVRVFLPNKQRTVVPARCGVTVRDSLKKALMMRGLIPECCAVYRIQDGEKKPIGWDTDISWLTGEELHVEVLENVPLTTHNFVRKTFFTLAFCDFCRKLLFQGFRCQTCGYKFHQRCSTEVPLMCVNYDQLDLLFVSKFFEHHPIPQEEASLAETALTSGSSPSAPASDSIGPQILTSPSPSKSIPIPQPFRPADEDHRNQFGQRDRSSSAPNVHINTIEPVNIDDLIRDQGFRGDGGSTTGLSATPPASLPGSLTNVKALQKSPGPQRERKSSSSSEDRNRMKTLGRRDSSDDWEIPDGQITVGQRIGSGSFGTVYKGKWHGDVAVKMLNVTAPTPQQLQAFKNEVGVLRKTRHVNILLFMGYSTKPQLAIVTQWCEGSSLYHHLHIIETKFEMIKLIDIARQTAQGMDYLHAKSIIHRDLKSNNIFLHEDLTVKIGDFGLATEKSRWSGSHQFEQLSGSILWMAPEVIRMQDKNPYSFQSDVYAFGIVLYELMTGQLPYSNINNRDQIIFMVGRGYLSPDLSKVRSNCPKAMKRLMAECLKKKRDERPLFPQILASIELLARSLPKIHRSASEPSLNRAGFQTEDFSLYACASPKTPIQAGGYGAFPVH
pIC50: −log10 of the molar value.
measure: pIC50

| molecule | measured |
| --- | --- |
| C#Cc1ccnc2[nH]cc(C(=O)c3c(F)ccc(NS(=O)(=O)c4ccc(C(F)(F)F)cc4)c3F)c12 [Compound P-0002] | > 6.00 |
| N#Cc1ccnc2[nH]cc(C(=O)c3c(F)ccc(NS(=O)(=O)c4ccc(C(F)(F)F)cc4)c3F)c12 [Compound P-0001] | > 6.00 |

----------
molecular target: UniProtKB P10635
Sequence (P10635 whole entry): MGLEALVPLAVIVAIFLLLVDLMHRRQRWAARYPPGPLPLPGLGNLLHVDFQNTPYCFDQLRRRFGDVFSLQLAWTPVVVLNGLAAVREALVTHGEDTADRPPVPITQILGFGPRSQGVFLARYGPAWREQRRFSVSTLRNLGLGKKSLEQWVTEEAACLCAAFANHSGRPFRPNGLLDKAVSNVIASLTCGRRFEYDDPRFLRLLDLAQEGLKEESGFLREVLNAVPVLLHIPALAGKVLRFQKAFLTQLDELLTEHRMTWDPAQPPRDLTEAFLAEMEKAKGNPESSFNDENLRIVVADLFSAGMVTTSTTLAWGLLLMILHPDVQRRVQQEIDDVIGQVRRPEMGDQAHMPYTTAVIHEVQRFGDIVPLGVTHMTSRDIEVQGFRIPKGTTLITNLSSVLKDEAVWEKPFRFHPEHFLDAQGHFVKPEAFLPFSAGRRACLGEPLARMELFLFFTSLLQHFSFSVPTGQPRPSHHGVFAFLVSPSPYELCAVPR
pIC50: −log10 of the molar value.

| smiles-string | system-name | pIC50 |
| --- | --- | --- |
| C#Cc1ccnc2[nH]cc(C(=O)c3c(F)ccc(NS(=O)(=O)c4ccc(C(F)(F)F)cc4)c3F)c12 | UniProtKB P10635 | < 5.00 |

----------
List of IC50 tested on UniProtKB P05177.
Sequence (P05177 whole entry): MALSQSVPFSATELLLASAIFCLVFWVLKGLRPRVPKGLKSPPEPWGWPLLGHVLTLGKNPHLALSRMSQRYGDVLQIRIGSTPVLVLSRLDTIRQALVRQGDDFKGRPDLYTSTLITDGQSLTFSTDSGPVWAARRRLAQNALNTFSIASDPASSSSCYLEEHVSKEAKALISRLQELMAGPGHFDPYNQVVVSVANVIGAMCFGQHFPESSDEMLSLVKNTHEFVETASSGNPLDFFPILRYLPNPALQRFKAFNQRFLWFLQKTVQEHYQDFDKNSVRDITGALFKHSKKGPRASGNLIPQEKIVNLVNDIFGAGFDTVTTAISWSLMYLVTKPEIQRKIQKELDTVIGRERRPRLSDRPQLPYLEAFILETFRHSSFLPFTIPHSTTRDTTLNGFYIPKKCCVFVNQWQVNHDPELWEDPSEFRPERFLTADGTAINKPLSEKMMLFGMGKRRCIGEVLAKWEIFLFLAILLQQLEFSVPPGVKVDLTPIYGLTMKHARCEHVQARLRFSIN
measure: IC50

| smiles-string | measured |
| --- | --- |
| N#Cc1ccnc2[nH]cc(C(=O)c3c(F)ccc(NS(=O)(=O)c4ccc(C(F)(F)F)cc4)c3F)c12 | > 10 µM |
| C#Cc1ccnc2[nH]cc(C(=O)c3c(F)ccc(NS(=O)(=O)c4ccc(C(F)(F)F)cc4)c3F)c12 | > 10 µM |

----------
target: TrkA (Homo sapiens, UniProt P04629)
Sequence (P04629 33-796, species assumed): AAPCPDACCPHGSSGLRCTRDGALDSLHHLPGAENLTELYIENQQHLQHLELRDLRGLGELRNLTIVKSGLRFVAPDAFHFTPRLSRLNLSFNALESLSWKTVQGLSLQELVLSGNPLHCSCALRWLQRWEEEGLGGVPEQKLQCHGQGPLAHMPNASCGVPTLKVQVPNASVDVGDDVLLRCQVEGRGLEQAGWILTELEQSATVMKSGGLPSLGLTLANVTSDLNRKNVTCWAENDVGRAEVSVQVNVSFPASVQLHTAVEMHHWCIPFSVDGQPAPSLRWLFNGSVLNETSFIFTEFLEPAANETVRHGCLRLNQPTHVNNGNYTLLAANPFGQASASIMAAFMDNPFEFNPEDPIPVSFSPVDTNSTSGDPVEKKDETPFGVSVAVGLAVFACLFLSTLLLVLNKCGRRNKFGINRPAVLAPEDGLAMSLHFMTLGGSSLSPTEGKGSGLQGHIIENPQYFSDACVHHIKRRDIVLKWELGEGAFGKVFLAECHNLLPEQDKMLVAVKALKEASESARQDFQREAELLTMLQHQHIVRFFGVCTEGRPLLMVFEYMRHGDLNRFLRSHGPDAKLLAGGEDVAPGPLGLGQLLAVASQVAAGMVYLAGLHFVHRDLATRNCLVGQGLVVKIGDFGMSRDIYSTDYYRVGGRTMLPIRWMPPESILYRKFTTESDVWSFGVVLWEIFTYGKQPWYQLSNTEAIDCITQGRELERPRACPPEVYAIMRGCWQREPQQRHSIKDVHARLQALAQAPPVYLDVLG
measure: IC50

| molecule | measured |
| --- | --- |
| C#Cc1ccnc2[nH]cc(C(=O)c3c(F)ccc(NS(=O)(=O)c4ccc(C(F)(F)F)cc4)c3F)c12 [Compound P-0002] | > 10 µM |

----------
assay: pKa of weakly basic and weakly acidic centers; type: physicochemical; details: approximate; read-out: pKa of the sulfonamide nitrogen (weakly acidic)
Catalogue of compounds with associated pKa

| smiles-string | pKa |
| --- | --- |
| C#Cc1ccnc2[nH]cc(C(=O)c3c(F)ccc(NS(=O)(=O)c4ccc(C(F)(F)F)cc4)c3F)c12 | ~7 |
| N#Cc1ccnc2[nH]cc(C(=O)c3c(F)ccc(NS(=O)(=O)c4ccc(C(F)(F)F)cc4)c3F)c12 | ~7 |

----------
biological target: CYP3A4(BQ) (Homo sapiens)
Sequence (P08684 whole entry): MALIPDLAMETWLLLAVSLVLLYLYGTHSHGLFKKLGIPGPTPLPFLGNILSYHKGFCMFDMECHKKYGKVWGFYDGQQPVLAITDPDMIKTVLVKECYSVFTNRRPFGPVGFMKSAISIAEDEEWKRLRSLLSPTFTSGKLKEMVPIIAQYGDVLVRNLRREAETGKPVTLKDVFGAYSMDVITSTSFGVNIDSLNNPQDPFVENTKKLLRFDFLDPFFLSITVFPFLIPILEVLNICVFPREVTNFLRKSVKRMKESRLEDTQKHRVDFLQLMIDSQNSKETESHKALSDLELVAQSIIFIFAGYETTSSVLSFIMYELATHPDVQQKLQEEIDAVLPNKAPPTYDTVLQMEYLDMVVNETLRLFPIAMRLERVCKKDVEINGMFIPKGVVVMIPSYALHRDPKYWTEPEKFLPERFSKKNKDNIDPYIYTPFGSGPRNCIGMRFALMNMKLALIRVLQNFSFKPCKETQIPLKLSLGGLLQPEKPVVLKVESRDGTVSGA
measure: IC50

| compound | measured |
| --- | --- |
| C#Cc1ccnc2[nH]cc(C(=O)c3c(F)ccc(NS(=O)(=O)c4ccc(C(F)(F)F)cc4)c3F)c12 [Compound P-0002] | > 10 µM |
| N#Cc1ccnc2[nH]cc(C(=O)c3c(F)ccc(NS(=O)(=O)c4ccc(C(F)(F)F)cc4)c3F)c12 [Compound P-0001] | > 10 µM |

----------
molecular target: CYP3A4(BFC) (Homo sapiens)

| smiles-string | IC50 |
| --- | --- |
| N#Cc1ccnc2[nH]cc(C(=O)c3c(F)ccc(NS(=O)(=O)c4ccc(C(F)(F)F)cc4)c3F)c12 | > 10 µM |

These entries and their values trace back to patent US8129404B2.
